biological target: Pyruvate kinase PKM (Homo sapiens) (UniProt P14618); experiment: Inhibition human pyruvate kinase M2 at 10 uM
Sequence (P14618 2-531 limits assumed): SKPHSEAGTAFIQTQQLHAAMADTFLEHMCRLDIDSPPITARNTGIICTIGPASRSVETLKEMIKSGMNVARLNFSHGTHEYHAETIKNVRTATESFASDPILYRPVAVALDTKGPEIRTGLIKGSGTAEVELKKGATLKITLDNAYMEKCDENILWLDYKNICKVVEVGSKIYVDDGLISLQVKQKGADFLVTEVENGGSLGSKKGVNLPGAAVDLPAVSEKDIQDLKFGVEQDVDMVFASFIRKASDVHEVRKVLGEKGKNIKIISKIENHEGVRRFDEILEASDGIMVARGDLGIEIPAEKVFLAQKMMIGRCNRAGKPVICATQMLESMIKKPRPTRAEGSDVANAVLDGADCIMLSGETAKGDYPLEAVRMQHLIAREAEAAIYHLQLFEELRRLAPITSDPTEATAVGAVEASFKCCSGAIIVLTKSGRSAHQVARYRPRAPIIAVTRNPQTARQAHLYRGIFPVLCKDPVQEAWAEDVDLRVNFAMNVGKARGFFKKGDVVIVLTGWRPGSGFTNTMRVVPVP

{"mol smiles": "Brc1cc2cc(-c3cc4cc(Br)c(Br)cc4[nH]3)[nH]c2cc1Br", "inhibition (%)": 2.3}
{"mol smiles": "Brc1ccc2cc(-c3cc4cc(Br)c(Br)cc4[nH]3)[nH]c2c1", "inhibition (%)": 15.8}
{"mol smiles": "Brc1ccc2cc(/C=C/c3cc4ccccc4[nH]3)[nH]c2c1", "inhibition (%)": -0.9}
{"mol smiles": "Brc1ccc2c(c1)cc(-c1cc3ccc(Br)cc3[nH]1)n2CCN1CCOCC1", "inhibition (%)": 3.5}
{"mol smiles": "OCCn1c(-c2cc3ccc(Br)cc3[nH]2)cc2cc(Br)ccc21", "inhibition (%)": 12.1}

---

target: UniProt:P30613; test: Inhibition human pyruvate kinase R at 10 uM
parameter: inhibition

{"mol smiles": "Brc1ccc2[nH]c(-c3cc4ccc(Br)cc4[nH]3)cc2c1", "parameter": "inhibition", "observed value": "13.6%"}
{"mol smiles": "Brc1ccc2cc(-c3cc4ccc(Br)cc4[nH]3)[nH]c2c1", "parameter": "inhibition", "observed value": "18.3%"}
{"mol smiles": "O=[N+]([O-])c1cc(-c2cc3ccccc3[nH]2)ccc1-c1cc2ccc(Br)cc2[nH]1", "parameter": "inhibition", "observed value": "0%"}
{"mol smiles": "Brc1ccc2c(c1)cc(-c1cc3ccc(Br)cc3[nH]1)n2CCN1CCOCC1", "parameter": "inhibition", "observed value": "50.7%"}
{"mol smiles": "COc1cc(-c2cc3ccccc3[nH]2)ccc1-c1cc2ccc(Br)cc2[nH]1", "parameter": "inhibition", "observed value": "13.5%"}
{"mol smiles": "Brc1ccc2cc(-c3nc4ccccc4s3)[nH]c2c1", "parameter": "inhibition", "observed value": "21.6%"}
{"mol smiles": "Brc1ccc2cc(/C=C/c3cc4ccccc4[nH]3)[nH]c2c1", "parameter": "inhibition", "observed value": "23.8%"}
{"mol smiles": "CN1CCN(CCn2c(-c3cc4ccc(Br)cc4[nH]3)cc3cc(Br)ccc32)CC1", "parameter": "inhibition", "observed value": "26.1%"}
{"mol smiles": "Brc1ccc2[nH]c(-c3cc4cc(Br)ccc4[nH]3)cc2c1", "parameter": "inhibition", "observed value": "24.4%"}
{"mol smiles": "Cn1c(-c2cc3ccc(Br)cc3[nH]2)cc2cc(Br)ccc21", "parameter": "inhibition", "observed value": "2.7%"}
{"mol smiles": "Brc1ccc2cc(-c3cc4ccccc4o3)[nH]c2c1", "parameter": "inhibition", "observed value": "-5.5%"}

---

system: HEK293; experiment: Cytotoxicity against HEK293 cells assessed as cell viability at 1 ug/ml; assay type: cell-based; conditions: human
parameter: Cell viability (%)

{"mol smiles": "Brc1ccc2cc(-c3cc4ccc(Br)cc4[nH]3)[nH]c2c1", "parameter": "Cell viability", "observed value": 103}
{"mol smiles": "Brc1ccc2cc(/C=C/c3cc4ccccc4[nH]3)[nH]c2c1", "parameter": "Cell viability", "observed value": 107}
{"mol smiles": "Brc1ccc2cc(CCc3cc4ccc(Br)cc4[nH]3)[nH]c2c1", "parameter": "Cell viability", "observed value": 104}
{"mol smiles": "COc1ccc2[nH]c(-c3cc4ccc(Br)cc4[nH]3)cc2c1", "parameter": "Cell viability", "observed value": 107}
{"mol smiles": "Brc1ccc2cc(-c3cc4cc(Br)c(Br)cc4[nH]3)[nH]c2c1", "parameter": "Cell viability", "observed value": 102}
{"mol smiles": "COCn1c(-c2cc3ccc(Br)cc3[nH]2)cc2cc(Br)ccc21", "parameter": "Cell viability", "observed value": 123}

---

test system: Staphylococcus aureus; test: Antibacterial activity against Staphylococcus aureus ATCC 29213 by two fold serial dilution method; assay type: functional

{"mol smiles": "Brc1ccc2cc(-c3nc4ccccc4s3)[nH]c2c1", "MIC>98": ">64 µg/mL"}
{"mol smiles": "Brc1ccc2cc(-c3cc4cc(Br)c(Br)cc4[nH]3)[nH]c2c1", "MIC>98": "0.5 µg/mL"}
{"mol smiles": "Brc1ccc2cc(C#Cc3cc4ccccc4[nH]3)[nH]c2c1", "MIC>98": ">64 µg/mL"}
{"mol smiles": "Brc1ccc2cc(CCc3cc4ccc(Br)cc4[nH]3)[nH]c2c1", "MIC>98": ">64 µg/mL"}
{"mol smiles": "Brc1ccc2[nH]c(/C=C/c3cc4ccc(Br)cc4[nH]3)cc2c1", "MIC>98": ">64 µg/mL"}
{"mol smiles": "Brc1ccc2cc(-c3cc4ccccc4[nH]3)[nH]c2c1", "MIC>98": "2 µg/mL"}
{"mol smiles": "COCn1c(-c2cc3ccc(Br)cc3[nH]2)cc2cc(Br)ccc21", "MIC>98": ">64 µg/mL"}
{"mol smiles": "Brc1ccc2[nH]c(-c3nc4ccccc4s3)cc2c1", "MIC>98": ">64 µg/mL"}
{"mol smiles": "COc1ccc2[nH]c(-c3cc4ccc(Br)cc4[nH]3)cc2c1", "MIC>98": ">64 µg/mL"}
{"mol smiles": "Cn1c(C#Cc2cc3ccc(Br)cc3[nH]2)cc2ccc(Br)cc21", "MIC>98": ">64 µg/mL"}
{"mol smiles": "Brc1ccc2[nH]c(-c3cc4cc(Br)c(Br)cc4[nH]3)cc2c1", "MIC>98": "1 µg/mL"}

---

molecular target: Pyruvate kinase PKM (Homo sapiens) (UniProt P14618); experiment: Inhibition human pyruvate kinase M1 at 10 uM
Please note: yes (1) applies when inhibition is 10% or greater, and no (0) applies otherwise.

{"mol smiles": "OCCn1c(-c2cc3ccc(Br)cc3[nH]2)cc2cc(Br)ccc21", "group label": "yes (1)"}
{"mol smiles": "Brc1ccc2cc(-c3nc4ccccc4s3)[nH]c2c1", "group label": "yes (1)"}
{"mol smiles": "Brc1ccc2c(c1)cc(-c1cc3ccc(Br)cc3[nH]1)n2CCN1CCOCC1", "group label": "yes (1)"}
{"mol smiles": "Brc1ccc2[nH]c(-c3cc4cc(Br)ccc4[nH]3)cc2c1", "group label": "yes (1)"}
{"mol smiles": "Brc1ccc2cc(/C=C/c3cc4ccccc4[nH]3)[nH]c2c1", "group label": "yes (1)"}
{"mol smiles": "COc1cc(-c2cc3ccccc3[nH]2)ccc1-c1cc2ccc(Br)cc2[nH]1", "group label": "no (0)"}
{"mol smiles": "Brc1ccc2cc(-c3cc4ccc(Br)cc4[nH]3)[nH]c2c1", "group label": "yes (1)"}
{"mol smiles": "Brc1ccc2cc(-c3cc4ccccc4o3)[nH]c2c1", "group label": "no (0)"}
{"mol smiles": "Brc1ccc2[nH]c(-c3cc4ccc(Br)cc4[nH]3)cc2c1", "group label": "no (0)"}
{"mol smiles": "Brc1ccc2[nH]c(C#Cc3cc4ccc(Br)cc4[nH]3)cc2c1", "group label": "yes (1)"}
{"mol smiles": "Cn1c(-c2cc3ccc(Br)cc3[nH]2)cc2cc(Br)ccc21", "group label": "yes (1)"}

---

target: Pyruvate kinase PKLR (Homo sapiens) (UniProt P30613); test: Inhibition human pyruvate kinase L at 10 uM
Sequence (P30613 whole entry, looked up): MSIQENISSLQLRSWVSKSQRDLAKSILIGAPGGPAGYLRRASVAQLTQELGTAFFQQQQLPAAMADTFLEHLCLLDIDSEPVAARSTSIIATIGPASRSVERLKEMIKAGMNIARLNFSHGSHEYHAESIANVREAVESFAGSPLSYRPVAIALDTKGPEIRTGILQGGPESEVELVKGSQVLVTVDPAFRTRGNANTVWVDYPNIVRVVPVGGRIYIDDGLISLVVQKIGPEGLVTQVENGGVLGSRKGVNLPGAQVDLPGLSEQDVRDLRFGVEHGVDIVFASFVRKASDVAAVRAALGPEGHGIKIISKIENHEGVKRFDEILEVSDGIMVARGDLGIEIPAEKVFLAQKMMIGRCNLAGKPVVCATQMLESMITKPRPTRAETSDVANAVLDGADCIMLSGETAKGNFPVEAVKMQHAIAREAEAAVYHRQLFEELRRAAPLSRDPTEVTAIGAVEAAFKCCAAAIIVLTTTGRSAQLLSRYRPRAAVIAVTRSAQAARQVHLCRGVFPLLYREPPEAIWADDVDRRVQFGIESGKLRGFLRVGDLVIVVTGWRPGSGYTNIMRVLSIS
parameter: inhibition (%)

{"mol smiles": "Brc1cc2cc(-c3cc4cc(Br)c(Br)cc4[nH]3)[nH]c2cc1Br", "parameter": "inhibition", "observed value": 8.2}
{"mol smiles": "Brc1ccc2cc(/C=C/c3cc4ccccc4[nH]3)[nH]c2c1", "parameter": "inhibition", "observed value": 12.9}
{"mol smiles": "COc1cc(-c2cc3ccccc3[nH]2)ccc1-c1cc2ccc(Br)cc2[nH]1", "parameter": "inhibition", "observed value": 4.3}
{"mol smiles": "Brc1ccc2cc(CCc3cc4ccc(Br)cc4[nH]3)[nH]c2c1", "parameter": "inhibition", "observed value": 9.7}
{"mol smiles": "Brc1ccc2c(c1)cc(-c1cc3ccc(Br)cc3[nH]1)n2CCN1CCOCC1", "parameter": "inhibition", "observed value": 32.1}
{"mol smiles": "Brc1ccc2cc(-c3nc4ccccc4s3)[nH]c2c1", "parameter": "inhibition", "observed value": 7.8}
{"mol smiles": "Brc1ccc2cc(-c3cc4ccccc4o3)[nH]c2c1", "parameter": "inhibition", "observed value": -6}
{"mol smiles": "Brc1ccc2cc(-c3cc4cc(Br)c(Br)cc4[nH]3)[nH]c2c1", "parameter": "inhibition", "observed value": 23.7}
{"mol smiles": "O=[N+]([O-])c1cc(-c2cc3ccccc3[nH]2)ccc1-c1cc2ccc(Br)cc2[nH]1", "parameter": "inhibition", "observed value": -8.9}
{"mol smiles": "CN1CCN(CCn2c(-c3cc4ccc(Br)cc4[nH]3)cc3cc(Br)ccc32)CC1", "parameter": "inhibition", "observed value": 16.8}
{"mol smiles": "Brc1ccc2cc(-c3cc4ccc(Br)cc4[nH]3)[nH]c2c1", "parameter": "inhibition", "observed value": 7.9}
{"mol smiles": "Brc1ccc2[nH]c(C#Cc3cc4ccc(Br)cc4[nH]3)cc2c1", "parameter": "inhibition", "observed value": 14}
{"mol smiles": "Brc1ccc2[nH]c(-c3cc4cc(Br)ccc4[nH]3)cc2c1", "parameter": "inhibition", "observed value": 9.8}
{"mol smiles": "OCCn1c(-c2cc3ccc(Br)cc3[nH]2)cc2cc(Br)ccc21", "parameter": "inhibition", "observed value": 6.8}
{"mol smiles": "Brc1ccc2[nH]c(-c3cc4ccc(Br)cc4[nH]3)cc2c1", "parameter": "inhibition", "observed value": 6.1}
{"mol smiles": "Cn1c(-c2cc3ccc(Br)cc3[nH]2)cc2cc(Br)ccc21", "parameter": "inhibition", "observed value": 2.8}

Origin of the recorded values: ChEMBL document CHEMBL3112446
